- assayed target: human acetyl-CoA carboxylase 2 (ACC2) (Homo sapiens)
- Construct: The cDNA encoding amino acids 144 to 2458 of human acetyl-CoA carboxylase 2; made in house; host or cells: Sf9 insect cells (baculovirus, pFastBac1)
- Sequence (O00763 144-2458): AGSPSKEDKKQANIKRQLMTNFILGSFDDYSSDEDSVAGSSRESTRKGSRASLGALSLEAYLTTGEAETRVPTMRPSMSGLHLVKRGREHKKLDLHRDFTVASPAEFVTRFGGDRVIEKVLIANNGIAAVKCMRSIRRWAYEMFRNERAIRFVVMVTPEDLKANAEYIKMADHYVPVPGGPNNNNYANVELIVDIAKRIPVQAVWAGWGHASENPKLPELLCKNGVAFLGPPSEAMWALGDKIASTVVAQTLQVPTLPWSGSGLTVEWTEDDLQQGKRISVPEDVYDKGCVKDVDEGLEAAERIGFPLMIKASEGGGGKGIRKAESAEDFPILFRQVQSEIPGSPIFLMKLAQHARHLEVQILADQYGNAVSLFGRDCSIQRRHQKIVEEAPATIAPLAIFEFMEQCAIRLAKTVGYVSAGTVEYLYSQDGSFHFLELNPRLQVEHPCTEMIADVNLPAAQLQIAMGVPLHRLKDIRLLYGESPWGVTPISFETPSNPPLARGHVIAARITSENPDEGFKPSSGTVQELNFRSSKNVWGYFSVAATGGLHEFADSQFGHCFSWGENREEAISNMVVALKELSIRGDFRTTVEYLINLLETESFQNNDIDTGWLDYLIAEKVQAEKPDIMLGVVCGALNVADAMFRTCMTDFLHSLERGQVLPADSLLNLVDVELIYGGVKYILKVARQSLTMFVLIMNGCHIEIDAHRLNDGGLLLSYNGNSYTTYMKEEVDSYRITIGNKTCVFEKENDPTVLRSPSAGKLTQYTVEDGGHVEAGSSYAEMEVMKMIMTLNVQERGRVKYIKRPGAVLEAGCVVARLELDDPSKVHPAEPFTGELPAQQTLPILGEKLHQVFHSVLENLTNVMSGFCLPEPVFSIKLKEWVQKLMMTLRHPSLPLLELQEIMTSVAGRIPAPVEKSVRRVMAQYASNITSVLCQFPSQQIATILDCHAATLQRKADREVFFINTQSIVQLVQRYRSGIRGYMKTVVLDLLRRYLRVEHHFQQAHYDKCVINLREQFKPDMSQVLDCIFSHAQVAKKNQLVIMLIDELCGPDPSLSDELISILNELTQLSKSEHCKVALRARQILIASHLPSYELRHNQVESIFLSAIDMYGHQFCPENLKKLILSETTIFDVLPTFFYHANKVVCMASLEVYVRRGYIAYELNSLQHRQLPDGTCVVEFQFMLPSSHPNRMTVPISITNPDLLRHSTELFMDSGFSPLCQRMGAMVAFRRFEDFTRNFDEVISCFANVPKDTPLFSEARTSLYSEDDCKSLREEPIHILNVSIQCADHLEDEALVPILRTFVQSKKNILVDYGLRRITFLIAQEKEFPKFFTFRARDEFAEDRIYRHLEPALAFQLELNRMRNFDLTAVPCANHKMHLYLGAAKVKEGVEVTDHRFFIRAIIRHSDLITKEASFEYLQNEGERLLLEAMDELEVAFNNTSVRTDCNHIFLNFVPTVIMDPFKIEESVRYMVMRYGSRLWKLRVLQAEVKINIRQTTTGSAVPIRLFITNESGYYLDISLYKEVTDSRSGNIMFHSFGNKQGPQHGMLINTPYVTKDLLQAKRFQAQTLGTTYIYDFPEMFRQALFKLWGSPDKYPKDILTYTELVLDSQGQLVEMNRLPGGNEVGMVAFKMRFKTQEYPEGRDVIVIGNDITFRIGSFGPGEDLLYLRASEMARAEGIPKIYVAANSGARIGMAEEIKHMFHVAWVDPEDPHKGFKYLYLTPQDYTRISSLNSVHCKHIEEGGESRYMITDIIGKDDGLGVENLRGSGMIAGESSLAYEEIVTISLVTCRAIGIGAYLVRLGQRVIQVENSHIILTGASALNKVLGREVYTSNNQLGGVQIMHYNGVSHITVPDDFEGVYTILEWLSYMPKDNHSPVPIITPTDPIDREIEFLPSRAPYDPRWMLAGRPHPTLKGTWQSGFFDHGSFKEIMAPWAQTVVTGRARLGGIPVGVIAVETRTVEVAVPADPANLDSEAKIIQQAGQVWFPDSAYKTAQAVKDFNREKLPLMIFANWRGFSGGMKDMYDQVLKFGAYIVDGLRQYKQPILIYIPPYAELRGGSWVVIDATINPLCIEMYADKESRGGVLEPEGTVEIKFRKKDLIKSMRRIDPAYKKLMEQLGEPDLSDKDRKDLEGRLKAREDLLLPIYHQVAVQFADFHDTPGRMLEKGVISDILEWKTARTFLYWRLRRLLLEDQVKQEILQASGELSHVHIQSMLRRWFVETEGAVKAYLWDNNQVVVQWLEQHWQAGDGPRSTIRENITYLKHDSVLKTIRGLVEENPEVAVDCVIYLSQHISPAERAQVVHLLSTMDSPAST
- test name: Acetyl-CoA carboxylase enzyme assay (malonyl-CoA formation by LC/MS/MS)
- Format: biochemical
- cond: recombinant human ACC2 (aa 144-2458); read-out: IC50 ACC2
recorded metric: IC50 (nM)
Form entry: value (nM) — number only.

Some entries whose results are on file:
The measured IC50 associated with Cn1c(C2CC2)cc2ccc(S(=O)(=O)N[C@H]3CC[C@H](C(=O)N4CCCC(C(C)(C)O)C4)CC3)cc21 (stereo partly drawn) [Example 368] reads 145

Kindly note the recorded IC50 for CC(C)(C)c1nnc([C@H]2CC[C@H](NS(=O)(=O)c3ccc4[nH]c(-c5cccc(C(=O)O)c5)nc4c3)CC2)o1 [Example 610] , which is 1740

For record C[C@@H](NC(=O)[C@H]1CC[C@H](NS(=O)(=O)c2cnc3c(c2)N(C(=O)COCc2ccccc2)CCN3)CC1)c1ccc(F)cc1 [Example 233] the listed IC50 is 965

Pending compound:
CC(C)(C)OC(=O)N1CCN(C(=O)[C@H]2CC[C@H](NS(=O)(=O)c3ccc4c(c3)oc3ccccc34)CC2)[C@@H](c2ccccc2)C1 [Example 263] has a reported IC50 of 30

----------
pIC50 reference
- assayed target: human acetyl-CoA carboxylase 2 (ACC2) (Homo sapiens)
- Construct: The cDNA encoding amino acids 144 to 2458 of human acetyl-CoA carboxylase 2; made in house; host or cells: Sf9 insect cells (baculovirus, pFastBac1)
- test name: Acetyl-CoA carboxylase enzyme assay (malonyl-CoA formation by LC/MS/MS)
- Format: biochemical
- cond: recombinant human ACC2 (aa 144-2458); read-out: IC50 ACC2
pIC50: −log10 of the molar value.

Check out these entries, answers already filled in.
For C[C@@H](NC(=O)[C@H]1CC[C@H](NS(=O)(=O)c2ccc3[nH]c(Nc4ccc(N5CCOCC5)nc4)nc3c2)CC1)c1ccccc1 the compound record lists pIC50 as > 8.00

Measured pIC50 of Cc1ccccc1-c1cc2ccc(S(=O)(=O)N[C@H]3CC[C@H](C(=O)N4CCN(C(=O)OC(C)(C)C)C[C@@H]4c4ccccc4)CC3)cc2[nH]1 : > 8.00

So, O=C(Nc1ccccc1)c1ccc(NS(=O)(=O)c2ccc3[nH]c(-c4ccccc4)nc3c2)cc1 ? Its pIC50 was < 3.86

---
The recorded pIC50 for entry Cc1cc(CO)ccc1-c1cc2ccc(S(=O)(=O)N[C@H]3CC[C@H](C(=O)N4CCOCC4c4ccccc4)CC3)cc2[nH]1 (stereo partly shown) equals > 8.00

----------
- assayed target: human acetyl-CoA carboxylase 2 (ACC2) (Homo sapiens)
- Construct: The cDNA encoding amino acids 144 to 2458 of human acetyl-CoA carboxylase 2; made in house; host or cells: Sf9 insect cells (baculovirus, pFastBac1)
- test name: Acetyl-CoA carboxylase enzyme assay (malonyl-CoA formation by LC/MS/MS)
- Assay type: biochemical
- cond: recombinant human ACC2 (aa 144-2458); read-out: IC50 ACC2
// IC50 lookup, one value per entry

Take a look at these entries with their results.
Result for COCc1ccc(-c2cc3ccc(S(=O)(=O)N[C@H]4CC[C@H](C(=O)N5CCOC[C@@H]5C5CC5)CC4)cc3n2C)cc1 [Example 456] , tested on human acetyl-CoA carboxylase 2 (ACC2) (Homo sapiens), IC50: < 10 nM

The compound C[C@@H](NC(=O)[C@H]1CC[C@H](NS(=O)(=O)c2ccc3cc(-c4ccc(CO)cc4)[nH]c3c2)CC1)c1ccc(F)cc1 [Example 296] , tested on human acetyl-CoA carboxylase 2 (ACC2) (Homo sapiens), showed IC50 of < 10 nM

IC50 for human acetyl-CoA carboxylase 2 (ACC2) (Homo sapiens) with input Cn1c(-c2ccccc2)cc2ccc(S(=O)(=O)N[C@H]3CC[C@H](C(=O)N4CCOC(C)(C)C4)CC3)cc21 [Example 442] equals 40 nM

New cases:
Record C[C@@H](NC(=O)[C@H]1CC[C@H](NS(=O)(=O)c2ccc3cc(-c4ccccc4)[nH]c3c2)CC1)c1ccccn1 [Example 19] / human acetyl-CoA carboxylase 2 (ACC2) (Homo sapiens), IC50 recorded as 56 nM

Item: Cn1c(-c2ccccc2)cc2ccc(S(=O)(=O)N[C@H]3CC[C@H](C(=O)N4CCN[C@H](C(F)(F)F)C4)CC3)cc21 [Example 331] | System: human acetyl-CoA carboxylase 2 (ACC2) (Homo sapiens) | IC50: 25 nM

Form field IC50 for item Cn1c(-c2ccccc2)cc2cc(S(=O)(=O)N[C@H]3CC[C@H](C(=O)N4CC(C(=O)O)CCC4c4ccccc4)CC3)ccc21 (stereo partly drawn) [Example 90] on human acetyl-CoA carboxylase 2 (ACC2) (Homo sapiens): 260 nM

Value (IC50, human acetyl-CoA carboxylase 2 (ACC2) (Homo sapiens)) for record COc1ccc(-c2cc3ccc(S(=O)(=O)N[C@H]4CC[C@H](C(=O)N5CCOC[C@@H]5C(C)C)CC4)cc3n2C)cc1 [Example 441] = < 10 nM

# lookup: CN1CCN(c2ccc3cc(S(=O)(=O)N[C@H]4CC[C@H](C(=O)N[C@H](c5ccccc5)C(C)(C)O)CC4)ccc3n2)CC1 [Example 258] on human acetyl-CoA carboxylase 2 (ACC2) (Homo sapiens), IC50 = 80 nM

Tested on human acetyl-CoA carboxylase 2 (ACC2) (Homo sapiens): O=C(NCc1cccnc1)[C@H]1CC[C@H](NS(=O)(=O)c2ccc3[nH]c(-c4ccccc4)nc3c2)CC1 [Example 640] . Observed IC50: 960 nM

// compound C[C@@H](NC(=O)[C@H]1CC[C@H](NS(=O)(=O)c2ccc3c(c2)N(C)C(C(=O)O)CC3)CC1)c1ccc(F)cc1 (stereo partly drawn) [Example 225] , assay human acetyl-CoA carboxylase 2 (ACC2) (Homo sapiens), IC50 value: 85 nM

Reported IC50 (human acetyl-CoA carboxylase 2 (ACC2) (Homo sapiens)) for entry Cc1nc2cc(S(=O)(=O)N[C@H]3CC[C@H](C(=O)N[C@H](C)c4ccccc4)CC3)ccc2[nH]1 [Example 614] is 142 nM

Observed IC50 on human acetyl-CoA carboxylase 2 (ACC2) (Homo sapiens), entry C[C@@H](NC(=O)[C@H]1CC[C@H](NS(=O)(=O)c2ccc3[nH]c(-c4ccc(C(=O)O)cc4)nc3c2)CC1)c1ccccc1 [Example 278] , equals 66 nM

The compound C[C@@H](NC(=O)[C@H]1CC[C@H](NS(=O)(=O)c2ccc3ncccc3c2)CC1)c1ccc(F)cc1 [Example 111] , when measured on human acetyl-CoA carboxylase 2 (ACC2) (Homo sapiens), yielded IC50 of 139 nM

Summary line: CC(NC(=O)[C@H]1CC[C@H](NS(=O)(=O)c2ccc3c(c2)N(C)CCC3)CC1)c1ccncc1 (stereo partly drawn) [Example 161] , human acetyl-CoA carboxylase 2 (ACC2) (Homo sapiens), reported IC50 = 340 nM

The reported human acetyl-CoA carboxylase 2 (ACC2) (Homo sapiens) IC50 of O=C([C@H]1CC[C@H](NS(=O)(=O)c2cnc3c(c2)NCCS3)CC1)N1CCNC[C@@H]1c1ccccc1 [Example 192] is 15 nM

Test item C[C@@H](NC(=O)[C@H]1CC[C@H](NS(=O)(=O)c2ccc3[nH]ccc3c2)CC1)c1ccc(F)cc1 [Example 16] ; human acetyl-CoA carboxylase 2 (ACC2) (Homo sapiens); reported IC50 was 51 nM

# O=C([C@H]1CC[C@H](NS(=O)(=O)c2ccc3cc(-c4ccccc4)[nH]c3c2)CC1)N1CCNC(C(F)(F)F)C1 (stereo partly drawn) [Example 323] with human acetyl-CoA carboxylase 2 (ACC2) (Homo sapiens): IC50 is 55 nM

// returns IC50 for CC(C)OC(=O)c1ccc(NS(=O)(=O)c2ccc3nc(-c4ccncc4)[nH]c3c2)cc1 [Example 515] with human acetyl-CoA carboxylase 2 (ACC2) (Homo sapiens); value = 2860 nM

Kindly note: human acetyl-CoA carboxylase 2 (ACC2) (Homo sapiens), O=C(O)[C@@H]1CCCN(C(=O)[C@H]2CC[C@H](NS(=O)(=O)c3ccc4ccccc4c3)CC2)C1 [Example 163] , IC50 value reported: 8520 nM

Kindly note: human acetyl-CoA carboxylase 2 (ACC2) (Homo sapiens), CC(C)OC(=O)c1ccc(NS(=O)(=O)c2ccc3[nH]c(Nc4cccc(F)c4)nc3c2)cc1 [Example 535] , IC50 value reported: 225 nM

IC50 for human acetyl-CoA carboxylase 2 (ACC2) (Homo sapiens) with input COCc1ccc(-c2cc3ccc(S(=O)(=O)N[C@H]4CC[C@H](C(=O)N5CCOC[C@@H]5C5CC5)CC4)cc3[nH]2)cc1 [Example 455] equals < 10 nM
